- Measurement Protocol: cytotoxicity MTT assay in HMC3 cells
- Type: cell-based, human
- Experimental Setup: human, HMC3 microglial cells, MTT, 1–100 μM, 24 h
Kindly supply the reported IC50 at 24 h values for the records listed here.

>  <Molecule>
COc1ccccc1/C=C/C(=O)c1c(O)c2ccccc2oc1=O [LM-009]

>  <Result>
> 100 µM

$$$$

Switching to the query record.
Requested read-out: IC50 at 24 h. Entry: Cc1ccc(/C=C/C(=O)c2c(O)c3ccccc3oc2=O)cc1 [LM-016] > 100 µM

* * *

- Measurement Protocol: cytotoxicity MTT assay in BE(2)-M17 cells
- Format: cell-based, human
- Experimental Setup: human, MTT, 1–100 μM, 24 h
- Method: Human HMC3 microglial (CRL-3304) and neuroblastoma BE(2)-M17 (CRL-2267) cells were obtained from American Type Culture Collection. […] To evaluate cytotoxicity of LM compounds and MPP^+, HMC3 (1 × 10^4) or BE(2)-M17 (2 × 10^4) cells were plated on 96-well dishes, grown for 20 h, and treated with LM compounds (1–100 μM) or MPP^+ [HMC3: 0–8 mM; BE(2)-M17: 0–5 mM]. […] The half maximal inhibitory concentration (IC50) of LM compounds was determined through the construction of a dose-response curve. […]
pIC50: −log10 of the molar value.
Measured Property: pIC50

>  <Smiles Entry>
CN(C)c1ccc(/C=C/C(=O)c2c(O)c3ccccc3oc2=O)cc1

>  <Result>
< 4.00

$$$$

Moving on to the next compound.
Endpoint output: pIC50 of O=C(/C=C/c1ccccc1O)c1c(O)c2ccccc2oc1=O . Value? < 4.00

* * *

- Measurement Protocol: cytotoxicity MTT assay in HMC3 cells
- Format: cell-based, human
- Experimental Setup: human, MTT, 1–100 μM, 24 h
Please respond with reported IC50 for every item in the list.

# batch: return IC50 for each of the 2 compounds below
1. CN(C)c1ccc(/C=C/C(=O)c2c(O)c3ccccc3oc2=O)cc1 [LM-021]
2. O=C(/C=C/c1ccccc1O)c1c(O)c2ccccc2oc1=O [LM-036]

1: > 100 µM; 2: > 100 µM

* * *

- Measurement Protocol: cytotoxicity MTT assay in BE(2)-M17 cells
- Type: cell-based, human
- Experimental Setup: human, BE(2)-M17 neuroblastoma cells, MTT, 1–100 μM, 24 h
Please respond with reported IC50 at 24 h for every item in the list.

>  <Compound>
Cc1ccc(/C=C/C(=O)c2c(O)c3ccccc3oc2=O)cc1 [LM-016]

>  <Result>
> 100 µM

$$$$

Shift focus to the following entry.
Fill blank: measured IC50 at 24 h of the compound COc1ccccc1/C=C/C(=O)c1c(O)c2ccccc2oc1=O [LM-009] is ____. > 100 µM
